Below: a set of entries, each annotated with reported Solubility in water (20° C.).
test_protocol: Solubility in water at 20° C. of the iodine compounds
condition_notes: % means % by weight

Record excerpt, results attached:
O=C([O-])C(I)c1ccccc1.[Na+] (stereo not drawn) [Example 6, Sodium 2-iodo-2-phenylacetate] ... >10%
CC(C)(I)C(=O)[O-].[Na+] [Example 5, Sodium 2-iodo-2-methylpropionate] ... >10%

Lab note: next compound to report on.
# input compound: CCOC(=O)C(C)(C)I [Reference Example 5, Ethyl 2-iodo-2-methylpropionate, reference compound] ; wanted: its Solubility in water (20° C.)
<0.1%
